Cited source: patent US20190248900A1

- experimentalSystem: human PD-1 (NM_005018.2) over-expressed on cells (human, UniProt Q15116 25-288)
- Sequence (Q15116 25-288): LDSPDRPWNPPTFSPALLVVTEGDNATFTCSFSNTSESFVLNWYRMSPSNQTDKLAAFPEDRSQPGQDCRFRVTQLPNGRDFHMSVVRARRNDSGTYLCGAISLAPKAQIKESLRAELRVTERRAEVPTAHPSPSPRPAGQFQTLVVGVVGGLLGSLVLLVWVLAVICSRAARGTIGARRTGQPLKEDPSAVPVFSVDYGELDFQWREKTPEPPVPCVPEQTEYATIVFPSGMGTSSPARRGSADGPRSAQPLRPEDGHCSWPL
- protocol: cell-based or functional assay
readoutType: EC50 [nM], PD1/PD-L1 blockade bioassay (nM)

1. PD1-49A2(A/1B2) (antibody, V domains shown, scFv-phage in the screening ELISA; whole IgG in the other assays; also called 49A2-1B2; PD1 49A2 1B2) VH: QVQLVESGGGVVQPGRSLRLSCAASGFTFLRYAMHWVRQAPGKGLEWVAVISYDGQDKYYADSVKGRFTISRDNSKNTLYLQMNSLRAEDTAVYYCTTTTFDSWGRGTLVTVSS VL: DIVMTQTPLSLPVTPGEPASISCRSSQSLLDSDDGNTYLDWYLQKPGQSPQLLIYTLSHRASGVPDRFSGSGSGTEFNLRISRVEAEDVGIYYCMQRVEFPFTFGQGTKLEIK
1.3
2. PD1-49A2(A/2A6) (antibody, V domains shown, scFv-phage in the screening ELISA; whole IgG in the other assays; also called 49A2-2A6; PD1 49A2 2A6) VH: QVQLVESGGGVVQPGRSLRLSCAASGFTFKYYAMHWVRQAPGKGLEWVTVISYDGQYKYYADSVKGRFTISRDNSKNTLYLQMNSLRAEDTAVYYCTTTTFDSWGQGTLVTVSS VL: DIVMTQTPLSLPVTPGEAASISCRSSQSLLDSEDGNTYLDWYLQRPGQSPQLLIYTLSHRASGVPGRFSGSGSGTEFNLRISRVEAEDVGIYYCMQRVEFPFTFGQGTKVEIK
1.51
3. PD1-45D6(A/5H9) (antibody, V domains shown) VH: QVQLVESGGGVVQPGRSLRLSCAASGFTFWTYAMHWVRQAPGKGLEWVAVISYDGNDKYYADSVKGRFTISRDNSKNTLYLQMNSLRAEDTAVYYCVPTTFEYWGQGTLVTVSS VL: DIVMTQTPLSLPVTPGEPASISCRSSQSLLDSDDGNTYLDWYLQKPGQSPQLLIYTLSHRASGVSDRFSGSGSGTDFTLEISRVEAEDVGVYYCMQRRDFPFTFGQGTKVEIK
2
4. PD1-45D6(A/4D4) (antibody, V domains shown) VH: QVQLVESGGGVVQPGRSLRLSCAASGFTFSSYAMHWVRQAPGKGLEWVAVISYDGNDKYYADSVKGRFTISRDNSKNTLYLQMNSLRAEDTAVYYCVPTTFEYWGQGTLVTVSS VL: DIVMTQTPLSLPVTPGEPASISCRSSQSLLDSEDGNTYLDWYLQKPGQSPQLLIYTLSHRASGVPDRFSGSGSGTEFNLRISRVEAEDVGIYYCMQRVEFPFTFGQGTKVDIK
1.74
5. PD1-62E1 (antibody, V domains shown) VH: QVQLVESGGDLVKPGRSLRLSCTGSGFTFGDHPLTWVRQIPGKGLEWVGFIRSKAYGETTEYAASVKGRFTISRDDSKSIAYLQMNSLRAEDTAVYYCASVSYCSGGSCYQGTFDYWGQGTLVTVSS VL: DIQMTQSPAILSLSPGERATLSCRASQSVTSDVAWYQHIRGQAPRLLIYDASNRASGIPARFSGGGSGTEFTLTISSLEPEDFAVYYCQQYNNWPLTFGGGTKVEIK
2.73
6. PD1-74A01 (antibody, V domains shown) VH: QVQLVESGGGVVQPGRSLRLSCAASGFTFSSYAMHWVRQAPGKGLEWVAVISYDGSNKYYADSVKGRFTISRDNSKNTLYLQMNSLRSEDTAVYYCVPTTFEYWGQGSQVTVSS VL: DIVMTQTPLSLPVTPGEPASISCRSSQSLLDRGGGHTYLDWYLQKPGQSPQLLIYTLSHRASGVPDRFSGSGSGTDFTLKISRVEAEDVGIYYCMQRKEFPLTFGPGTKLEIK
1.01
7. PD1-74H12 (antibody, V domains shown) VH: QVQLVESGGGVVQPGRSLRLSCAASGFTFSSYAMHWVRQAPGKGLEWVAVISYDGSNKYYADSVKGRFTISRDNSKNMLYLEMNSLRAEDTAVYYCVPTTFEYWGQGSQVTVSS VL: DIVMTQTPLSLSVTPGEPASISCRSSQSLLDSDDGNTYLDWYLQKPGQSPQLLIYTLSHRASGVPDRFSGRGSHTDFTLTISSVEAEDVGVYYCMQRIHFPLTFGQGTRLEIK
0.98
8. PD1-45D6(A/5B2) (antibody, V domains shown, scFv-phage in the screening ELISA; whole IgG in the other assays; also called 45D6-5B2; PD1 45D6 5B2) VH: QVQLVESGGGVVQPGRSLRLSCAASGFTFSFYAMHWVRQAPGKGLEWVAVISYDGNDKYYADSVKGRFTISRDNSKNTLYLQMNSLRAEDTAVYYCVPTTFEYWGQGTLVTVSS VL: DIVMTQTPLSPPVTPGEPASISCRSSQSLLDSDDGNTYLDWYLQKPGQSPQLLIYTLSHRASGVPDRFSGSGSGTDFTLEISRVEAEDVGVYYCMQRRDFPFTFGQGTKLDIK
1.48
9. PD1-45D6(A/3H6) (antibody, V domains shown) VH: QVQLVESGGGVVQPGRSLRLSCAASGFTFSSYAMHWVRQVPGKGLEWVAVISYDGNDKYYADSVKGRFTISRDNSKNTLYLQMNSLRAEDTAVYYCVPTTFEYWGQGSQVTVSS VL: DIVMTQTPLSLPVTPGEAASISCRSSQSLLDSEDGNTYLDWYLQKPGQSPQLLIYTLSHRASGVPDRFSGSGSGTDFTLKISRVEAEDVGVYYCMQRVEFPFTFGQGTKLEIK
1.49
10. PD1-45D6(A/3G1) (antibody, V domains shown) VH: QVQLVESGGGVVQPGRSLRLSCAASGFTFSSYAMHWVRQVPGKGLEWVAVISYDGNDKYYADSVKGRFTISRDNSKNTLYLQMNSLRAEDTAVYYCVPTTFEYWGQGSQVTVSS VL: DIVMTQTPLSLPVTPGEPASISCRSSQSLLDSEDGNTYLDWYLQKPGQSPQLLIYTLSHRASGVPDRFSGSGSGTDFTLEISRVEAEDVGVYYCMQRVEFPFTFGQGTKLDIK
0.98
